These measurements were taken from patent US20120316071A1.

Below is a list of entries, each paired with its recorded ELISA signal value.
Target: T1, Recombinant Human DLL4 (delta-like protein 4) (human, UniProt Q9NR61 27-524)
T1 construct: Bought recombinant human DLL4 coated on the ELISA plate; also called rHuman DLL4
Assay: ELISA, DLL4 coated on plate, Fab at 12.5 nM (2-fold dilution series), absorbance at 450 nm

binder: Fab VH5-51_IGHD5-18*01>3_IGHJ4*01 G100K & V3-4_IGLJ1*01 (wildtype) (Fab, V domains shown, Fab; Expressed in E. coli with CH1 (plasmid A, His6 and Flag tags) and lambda CL (plasmid E); also called G100K & Wildtype) VH: EVQLVQSGAEVKKPGESLKISCKGSGYSFTSYWIGWVRQMPGKGLEWMGIIYPGDSDTRYSPSFQGQVTISADKSISTAYLQWSSLKASDTAMYYCARRKYSYGYDYFDYWGQGTLVTVSS VL: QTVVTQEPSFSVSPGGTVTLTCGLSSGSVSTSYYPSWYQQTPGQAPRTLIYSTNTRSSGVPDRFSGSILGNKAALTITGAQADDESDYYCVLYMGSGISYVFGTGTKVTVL
ELISA signal: 0.19

binder: Fab VH5-51_IGHD5-18*01>3_IGHJ4*01 G100K/G104T G24L/S28R/G35V (KT LRV) & V3-4_IGLJ1*01 V91L/S96P S52M (Fab, V domains shown, Fab; Expressed in E. coli with CH1 (plasmid A, His6 and Flag tags) and lambda CL (plasmid E); also called G100K/G104T G24L/S28R/G35V & V91L/S96P S52M) VH: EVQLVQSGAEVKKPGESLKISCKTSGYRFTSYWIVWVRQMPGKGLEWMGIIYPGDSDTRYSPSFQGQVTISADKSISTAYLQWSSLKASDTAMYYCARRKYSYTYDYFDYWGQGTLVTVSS VL: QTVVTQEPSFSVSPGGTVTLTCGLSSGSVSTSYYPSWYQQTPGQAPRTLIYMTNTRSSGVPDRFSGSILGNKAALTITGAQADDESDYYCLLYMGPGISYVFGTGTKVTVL
ELISA signal: 0.41

binder: Fab VH5-51_IGHD5-18*01>3_IGHJ4*01 G100K/G104T G24T/S28R/G35V (KT TRV) & V3-4_IGLJ1*01 V91L/S96P S52G (LP S52G) (Fab, V domains shown, Fab; Expressed in E. coli with CH1 (plasmid A, His6 and Flag tags) and lambda CL (plasmid E); also called H:KT TRV & L:LP S52G) VH: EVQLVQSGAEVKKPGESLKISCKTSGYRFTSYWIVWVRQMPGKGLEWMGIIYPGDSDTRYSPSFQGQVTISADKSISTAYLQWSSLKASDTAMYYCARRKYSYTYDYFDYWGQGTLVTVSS VL: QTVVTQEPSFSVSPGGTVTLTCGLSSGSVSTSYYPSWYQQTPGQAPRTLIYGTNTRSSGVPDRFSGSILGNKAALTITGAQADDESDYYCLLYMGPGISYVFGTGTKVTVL
ELISA signal: 0.63

binder: Fab VH5-51_IGHD5-18*01>3_IGHJ4*01 G100K/G104T G24A/S28R/G35V (KT ARV) & V3-4_IGLJ1*01 V91L/S96P S52H (Fab, V domains shown, Fab; Expressed in E. coli with CH1 (plasmid A, His6 and Flag tags) and lambda CL (plasmid E); Fab H:KT TRV & L:LP S52H; also called G100K/G104T G24A/S28R/G35V & V91L/S96P S52H) VH: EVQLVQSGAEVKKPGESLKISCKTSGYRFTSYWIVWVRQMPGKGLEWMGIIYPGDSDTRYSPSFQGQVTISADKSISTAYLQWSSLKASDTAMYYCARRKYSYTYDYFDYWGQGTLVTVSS VL: QTVVTQEPSFSVSPGGTVTLTCGLSSGSVSTSYYPSWYQQTPGQAPRTLIYHTNTRSSGVPDRFSGSILGNKAALTITGAQADDESDYYCLLYMGPGISYVFGTGTKVTVL
ELISA signal: 0.5

binder: Fab VH5-51_IGHD5-18*01>3_IGHJ4*01 G104T & V3-4_IGLJ1*01 (wildtype) (Fab, V domains shown, Fab; Expressed in E. coli with CH1 (plasmid A, His6 and Flag tags) and lambda CL (plasmid E); also called G104T & Wildtype) VH: EVQLVQSGAEVKKPGESLKISCKGSGYSFTSYWIGWVRQMPGKGLEWMGIIYPGDSDTRYSPSFQGQVTISADKSISTAYLQWSSLKASDTAMYYCARRGYSYTYDYFDYWGQGTLVTVSS VL: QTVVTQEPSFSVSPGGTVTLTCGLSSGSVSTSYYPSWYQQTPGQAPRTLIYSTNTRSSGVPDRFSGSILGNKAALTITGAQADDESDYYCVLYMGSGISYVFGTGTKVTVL
ELISA signal: 0.19

binder: Fab VH5-51_IGHD5-18*01>3_IGHJ4*01 & V3-4_IGLJ1*01 (parental, wildtype) (Fab, V domains shown, Fab; Expressed in E. coli with CH1 (plasmid A, His6 and Flag tags) and lambda CL (plasmid E); also called Wildtype & Wildtype; parent Hit Fab) VH: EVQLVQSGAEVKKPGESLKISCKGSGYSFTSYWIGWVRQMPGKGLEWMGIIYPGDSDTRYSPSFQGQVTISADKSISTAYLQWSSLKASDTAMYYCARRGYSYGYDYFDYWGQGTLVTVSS VL: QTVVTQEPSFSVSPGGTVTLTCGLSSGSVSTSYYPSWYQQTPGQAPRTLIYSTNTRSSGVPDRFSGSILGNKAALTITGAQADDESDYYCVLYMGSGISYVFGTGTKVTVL
ELISA signal: 0.17

binder: Fab VH5-51_IGHD5-18*01>3_IGHJ4*01 G100K/G104T G24A/S28R/G35V (KT ARV) & V3-4_IGLJ1*01 V91L/S96P S52V (Fab, V domains shown, Fab; Expressed in E. coli with CH1 (plasmid A, His6 and Flag tags) and lambda CL (plasmid E); The light-chain S52 variants were made on the KT TRV heavy chain (T0104); also called G100K/G104T G24A/S28R/G35V & V91L/S96P S52V) VH: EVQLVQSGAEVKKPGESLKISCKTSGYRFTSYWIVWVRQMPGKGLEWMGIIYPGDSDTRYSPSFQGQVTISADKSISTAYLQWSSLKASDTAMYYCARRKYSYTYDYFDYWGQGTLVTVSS VL: QTVVTQEPSFSVSPGGTVTLTCGLSSGSVSTSYYPSWYQQTPGQAPRTLIYVTNTRSSGVPDRFSGSILGNKAALTITGAQADDESDYYCLLYMGPGISYVFGTGTKVTVL
ELISA signal: 0.43

binder: Fab VH5-51_IGHD5-18*01>3_IGHJ4*01 G100K/G104T S28R (KT S28R) & V3-4_IGLJ1*01 (wildtype) (Fab, V domains shown, Fab; Expressed in E. coli with CH1 (plasmid A, His6 and Flag tags) and lambda CL (plasmid E); also called H:KT S28R & L:wt) VH: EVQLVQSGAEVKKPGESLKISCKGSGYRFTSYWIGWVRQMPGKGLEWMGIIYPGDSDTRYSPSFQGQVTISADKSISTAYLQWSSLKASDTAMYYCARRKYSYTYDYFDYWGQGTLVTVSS VL: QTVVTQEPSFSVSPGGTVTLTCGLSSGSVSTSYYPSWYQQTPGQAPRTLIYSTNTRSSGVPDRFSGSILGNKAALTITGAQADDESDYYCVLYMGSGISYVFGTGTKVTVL
ELISA signal: 0.18

binder: Fab VH5-51_IGHD5-18*01>3_IGHJ4*01 G100K/G104T G24T/S28R/G35V (KT TRV) & V3-4_IGLJ1*01 (wildtype) (Fab, V domains shown, Fab; Expressed in E. coli with CH1 (plasmid A, His6 and Flag tags) and lambda CL (plasmid E); also called H:KT TRV & L:wt) VH: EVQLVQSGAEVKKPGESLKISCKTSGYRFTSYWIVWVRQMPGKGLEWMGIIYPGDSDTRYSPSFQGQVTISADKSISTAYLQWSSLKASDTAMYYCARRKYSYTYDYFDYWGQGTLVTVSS VL: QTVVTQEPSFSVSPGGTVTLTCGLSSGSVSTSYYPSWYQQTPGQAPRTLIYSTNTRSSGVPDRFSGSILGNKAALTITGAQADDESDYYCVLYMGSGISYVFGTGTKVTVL
ELISA signal: 0.23

binder: Fab VH5-51_IGHD5-18*01>3_IGHJ4*01 G100K/G104T (KT) & V3-4_IGLJ1*01 (wildtype) (Fab, V domains shown, Fab; Expressed in E. coli with CH1 (plasmid A, His6 and Flag tags) and lambda CL (plasmid E); also called H:KT & L:wt; KT double mutant) VH: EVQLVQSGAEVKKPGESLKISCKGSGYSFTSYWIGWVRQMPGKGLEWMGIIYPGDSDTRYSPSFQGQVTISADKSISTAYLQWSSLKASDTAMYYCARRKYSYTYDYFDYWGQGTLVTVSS VL: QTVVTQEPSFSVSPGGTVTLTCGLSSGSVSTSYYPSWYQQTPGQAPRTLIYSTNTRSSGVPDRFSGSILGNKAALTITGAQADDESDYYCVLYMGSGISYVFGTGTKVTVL
ELISA signal: 0.18
